# System: HBsAg
# experiment summary: HBsAg assay: inhibition of HBsAg in HepG2.2.15 cells (chemiluminescence immunoassay of supernatant)
# Assay type: cell-based, hepatitis B virus
# setup conditions: read-out: sAg EC50; HepG2.2.15 cells; HBsAg in supernatant at day 6 after exposure to compound; 0.5% DMSO
Would you mind classing the entries by EC50? Ranges: lower band (below 60 nM), central band (60 nM to below 700 nM), upper band (700 nM or more)

input: Exam item: assign CC1(C)CCN(c2cc(C3CC3c3cnc(-c4ncccn4)nc3)cc(F)c2F)C1 (single isomer, unassigned) [Example 221] to the correct category.
output: central band

###

# key: entry, value: pEC50
# Test system: HBsAg
# experiment summary: HBsAg assay: inhibition of HBsAg in HepG2.2.15 cells (chemiluminescence immunoassay of supernatant)
# Format: cell-based, hepatitis B virus
# setup conditions: read-out: sAg EC50; HepG2.2.15 cells; HBsAg in supernatant at day 6 after exposure to compound; 0.5% DMSO
Note: pEC50 values are expressed as the negative base-10 logarithm of concentration in M.

Consider the following illustrative entries.
COc1cc(C2CC2c2cnc(-c3ncccn3)nc2N2CCCCC2)ccc1F (single isomer, unassigned) [Example 145]	6.15
COc1c(F)ccc(C2CC2c2cnc(-c3ncccn3)nc2)c1F (single isomer, unassigned) [Example 190]	5.89
Fc1cc(C2CC2c2cnc(-c3ncccn3)nc2)cc(N2CCCC2)c1F (single isomer, unassigned) [Example 93]	7.72
Fc1ccc(C2CC2c2ccnc(-c3ncccn3)n2)cc1F (single isomer, unassigned) [Example 6]	5.00
Fc1cc(C2CC2c2cnc(-c3ncccn3)nc2)cc(F)c1F (single isomer, unassigned) [Example 161]	5.00

Here's the next entry for you.
Given item CC1(C)CCN(c2cc(C3CC3c3cnc(-c4ncccn4)nc3)cc(F)c2F)C1 (single isomer, unassigned) [Example 220] , the value recorded as its pEC50 is 7.52

###

Recorded measurements of EC50, one per entry
# Test system: HBsAg
# experiment summary: HBsAg assay: inhibition of HBsAg in HepG2.2.15 cells (chemiluminescence immunoassay of supernatant)
# Format: cell-based, hepatitis B virus
# setup conditions: read-out: sAg EC50; HepG2.2.15 cells; HBsAg in supernatant at day 6 after exposure to compound; 0.5% DMSO
Hi! Could you send only the number? It should be in µM, unit omitted.

Use the examples below as a reference point.
OC1CN(c2cc(C3CC3c3cnc(-c4ncccn4)nc3)ccc2F)C1 (single isomer, unassigned) [Example 54]	0.22
COc1cc(C2CC2c2cnc(-c3ncccn3)nc2)ccc1Cl (single isomer, unassigned) [Example 33]	0.031

Attention now turns to another entry.
Sure, the documented EC50 for O[C@H]1CCN(c2cc(C3CC3c3cnc(-c4ncccn4)nc3)cc(Cl)c2F)C1 (single isomer, unassigned) [Example 120] is 0.099

###

# Tested on: HBsAg
# experiment summary: HBsAg assay: inhibition of HBsAg in HepG2.2.15 cells (chemiluminescence immunoassay of supernatant)
# Format: cell-based, hepatitis B virus
# setup conditions: read-out: sAg EC50; HepG2.2.15 cells; HBsAg in supernatant at day 6 after exposure to compound; 0.5% DMSO
value kind: EC50 (nM)
Numeric answer only, unit nM assumed.

Here are 5 compounds together with their reported answers.
CCc1cc(F)c(OC)cc1C1CC1c1cnc(-c2ncccn2)nc1 (single isomer, unassigned)	720
CCc1nc(-c2ncccn2)ncc1C1CC1c1ccc(F)c(OC)c1 (single isomer, unassigned) [Example 77]	5000
Fc1ccc(C2CC2c2cnc(-c3ncccn3)nc2)cc1N1CCCC1 (single isomer, unassigned)	23
CN(C)c1cc(C2CC2c2cnc(-c3ncccn3)nc2)ccc1F (single isomer, unassigned) [Example 63]	390
Fc1cc(C2CC2c2cnc(-c3ncccn3)nc2)cc(NC2CCCC2)c1F (single isomer, unassigned) [Example 207]	750

Documented EC50 of Fc1cc(C2CC2c2cnc(-c3ncccn3)nc2)cc(N2CC(c3ccccc3)C2)c1F (single isomer, unassigned) [Example 256] : 28

// field: EC50; key: COc1cc(C2CC2c2cnc(-c3ncccn3)nc2)cc(Cl)c1F (single isomer, unassigned) [Example 149] ; value = 62

In plain terms, Fc1ccc(C2CC2c2cnc(-c3ncccn3)nc2)cc1OCC1CC1 (single isomer, unassigned) [Example 26] has a documented EC50 of 29

So for CO[C@@H]1CCN(c2cc(C3CC3c3cnc(-c4ncccn4)nc3)cc(Cl)c2F)C1 (single isomer, unassigned) , the logged EC50 turned out to be 120

Record summary for COc1c(Cl)ccc(C2CC2c2cnc(-c3ncccn3)nc2)c1OC (single isomer, unassigned) [Example 115] : reported EC50 = 320

Measured EC50, Fc1ccc(C2CC2c2cnc(-c3ncccn3)nc2)cc1F (single isomer, unassigned) [Example 15] : 76

EC50 measured on Fc1cn(-c2cc(C3CC3c3cnc(-c4ncccn4)nc3)cc(F)c2F)cc1F (single isomer, unassigned) [Example 258] = 14

Sample COc1cc(C2CC2c2cnc(-c3ncccn3)nc2-c2ccccc2)ccc1F (single isomer, unassigned) [Example 142] ; EC50 observed: 5000

These measurements were taken from patent US20230083973A1.
